Hey, just so you know, these numbers are from patent US20250171451A1.

- system_tested: recombinant GST-TEAD1 proteins (209 to 426 a.a.) (Homo sapiens)
- Construct: recombinant GST-TEAD1 proteins (209 to 426 a.a.)
- Sequence (P28347 209-426): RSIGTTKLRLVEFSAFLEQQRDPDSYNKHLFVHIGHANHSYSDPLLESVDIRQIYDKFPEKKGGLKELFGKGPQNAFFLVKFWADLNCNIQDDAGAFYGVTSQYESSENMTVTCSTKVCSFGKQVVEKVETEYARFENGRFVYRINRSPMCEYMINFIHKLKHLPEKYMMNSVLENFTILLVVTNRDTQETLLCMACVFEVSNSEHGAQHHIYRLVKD
- test_method_notes: Evaluation of palmitoylation of TEAD protein
- Format: biochemical
- experimental_conditions: 5 μM compound, 15 minutes preincubation, 3 μM alkyne palmitoyl-CoA 30 minutes, pH 6.4, vs DMSO control
Answer each item with its documented inhibition at 5 µM.

Worked cases, answers included:
CC=CC(=O)Nc1cnc2c(c1)c(C)cn2Cc1ccc(C(F)(F)F)cc1 | < 40%
C=CC(=O)Nc1cnc2c(c1)c(C)cn2Cc1ccc(C(F)(F)F)c(OC)c1 | < 40%

Provide each entry's inhibition at 5 µM from the list below.
1. C=CC(=O)Nc1cnc2c(c1)c(C)nn2Cc1cccc(C(F)(F)F)c1
2. C=CC(=O)Nc1cnc2c(c1)c(C)nn2-c1cnn(C(F)(F)F)c1
3. C=CC(=O)Nc1cnc2c(c1)c(C)nn2-c1ccc(C(F)(F)F)c(O)c1
4. C=CC(=O)Nc1cnc2c(n1)c(C)cn2-c1ccc(C(F)(F)F)cc1
5. C=CC(=O)Nc1ccc2c(cnn2Cc2ccc(C(F)(F)F)cc2)c1
6. C=CC(=O)Nc1cnc2c(c1)c(C)nn2-c1cc(F)cc(F)c1

Result:
["< 40%", "40 to 80%", "40 to 80%", "40 to 80%", "> 80%", "40 to 80%"]

// for each molecule below, give its inhibition at 5 µM
1. C=CC(=O)Nc1cnc2c(c1)c(C)cn2Cc1ccc(C(F)(F)F)cc1
2. C=CC(=O)Nc1cnc2c(ccn2Cc2ccc(C(F)(F)F)cc2)c1OC
3. CC=CC(=O)Nc1cnc2c(c1)c(C)cn2CCCC

Result:
1: > 80%; 2: > 80%; 3: < 40%

Please go through the list and note inhibition at 5 µM for each molecule.
1. C=CC(=O)Nc1cnc2c(c1)c(C)cn2-c1cccc(C(F)(F)F)c1
2. C=CC(=O)Nc1cnc2c(cnn2-c2ccc(C(F)(F)F)cc2)c1
3. C=CC(=O)Nc1cnc2c(c1)c(C)nn2-c1ccc(OC(F)(F)F)nc1
4. C=CC(=O)Nc1cnc2c(c1)c(C)nn2-c1ccccc1OC
5. C=CC(=O)Nc1cnc2c(ccn2Cc2ccc(C(F)(F)F)cc2)n1
6. C=CC(=O)Nc1cnc2c(c1)c(C)nn2-c1ccc(OC(F)(F)F)cc1

Result:
1. > 80%
2. 40 to 80%
3. 40 to 80%
4. < 40%
5. > 80%
6. > 80%

Could I get inhibition at 5 µM for every one of these entries?
1. C=CC(=O)Nc1ccc2cnn(-c3ccc(C(F)(F)F)cc3)c2c1
2. C=CC(=O)Nc1cnc2c(c1)c(C)cn2Cc1ccc(C(F)F)cc1

Result:
40 to 80%
< 40%
